For each of the molecules below, state its activation.
# test description: endothelial E-selectin upregulation by compounds – imaging, HUVEC, cherry-picked samples, dose response (AID 977605);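 also: signal is the share of imaged cells scored positive for E-selectin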
# condition: HUVEC E-selectin immunostaining, at 19.5 µM (top of the series), percent of TNF-alpha response over vehicle
Report the figure in % without appending any unit label.

If you can, please state the reported activation value of `c1ccc(-c2ccccc2OCCOCCN2CCNCC2)cc1` . 0.084

Could you do the same for `C[C@H]1CN([C@@H](C)CO)C(=O)Cc2cc(NS(=O)(=O)c3ccccc3)ccc2O[C@H]1CN(C)Cc1ccc(C(F)(F)F)cc1` , please? 10.6

Next: `CCCC#Cc1ccc2c(c1)O[C@@H](CN(C)C(=O)c1ccncc1)[C@H](C)CN([C@@H](C)CO)S2(=O)=O` -0.24

Request: `Cc1noc(C)c1S(=O)(=O)Nc1ccc2c(c1)C(=O)N([C@H](C)CO)C[C@@H](C)[C@H](CN(C)Cc1ccc3c(c1)OCO3)O2` -0.134

`C[C@H](CO)N1C[C@H](C)[C@@H](CN(C)C)Oc2ccc(NC(=O)CCCN(C)C)cc2CC1=O` , same question. -0.172

Try this molecule too: `C[C@@H]1CN([C@@H](C)CO)C(=O)c2cc(C#CC3CC3)cnc2O[C@@H]1CN(C)C(=O)c1ccccc1` -0.295

###

Provide the reported activation of each item.
# test description: endothelial E-selectin upregulation by compounds – imaging, HUVEC, cherry-picked samples, dose response (AID 977605);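 also: signal is the share of imaged cells scored positive for E-selectin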
# condition: HUVEC E-selectin immunostaining, at 19.5 µM (top of the series), percent of TNF-alpha response over vehicle
Write the answer as a number in %, unit excluded.

activation lookup needed for `CNC(=O)C[C@H]1CC[C@H]2[C@@H](COc3ccc(NC(=O)c4cccc(F)c4)cc3C(=O)N2C)O1` , thanks. 1.5

// repeat for `O=C(c1cncc(Br)c1)N1CCN(S(=O)(=O)c2ccccc2C(F)(F)F)CC1` and report -0.01

Another compound to look at: `CC(C)NC(=O)N(C)C[C@H]1Oc2ccc(NC(=O)CCN3CCOCC3)cc2C(=O)N([C@@H](C)CO)C[C@H]1C` -0.017

Similarly, `Cc1cccc(CC(=O)Nc2sc(C(C)C)cc2C(=O)N2CCOCC2)c1` ? 0.007

Follow-up entry: `Cc1ccc(C(=O)Nc2cc(C)nn2CCC#N)cc1` 0.178

For `COc1ccc(S(=O)(=O)N2CCOCC2)cc1C(=O)NCc1ccccc1CN1CCCC1` then? 0.269

Can you check `C[C@H](CO)N1C[C@H](C)[C@H](CN(C)C(=O)Nc2cccc3ccccc23)Oc2ccc(NS(C)(=O)=O)cc2C1=O` next? 0.267

Same thing, different compound: `O=C(O)CCC(=O)NCC(=O)c1ccc(F)cc1` -0.239

// same read-out, input: `C[C@@H]1CN([C@@H](C)CO)C(=O)Cc2cc(NC(=O)Cc3ccccc3)ccc2O[C@H]1CN(C)C(=O)Nc1cccc2ccccc12` -0.158

Same read-out for `CC(=O)N(C)C[C@@H]1Oc2cc(C#Cc3ccccn3)ccc2S(=O)(=O)N([C@H](C)CO)C[C@@H]1C` ? -0.123

Continue with `Cc1noc(C)c1NC(=O)Nc1ccc2c(c1)CC(=O)N([C@@H](C)CO)C[C@H](C)[C@H](CN(C)Cc1ccc(Oc3ccccc3)cc1)O2` 0.075

How about this compound: `COc1ccc(NS(=O)(=O)c2cccc(Cl)c2Cl)cc1S(=O)(=O)N1CCCCC1` -0.061

Same question for `CO[C@H]1CN(C)C(=O)c2cc(NC(=O)Nc3ccc(Cl)cc3)ccc2OC[C@H](C)NC[C@H]1C` please. 0.158

Another compound to look at: O=C1CC(N2CCSCC2)C(=O)N1c1cccc(Br)c1 (stereo not drawn) -0.085

Please give the result for `COc1ccccc1CNC(=O)[C@@H]1CCCN1S(=O)(=O)c1ccc(Cl)cc1` too. -0.15

Same question, `C[C@H]1CN([C@@H](C)CO)C(=O)Cc2cc(NC(=O)C3CCCCC3)ccc2O[C@H]1CN(C)C(=O)NC1CCCCC1` this time -0.185

Please give the result for `Cn1c(CNS(=O)(=O)c2ccc(Cl)cc2)cc(=O)n(C)c1=O` too. -0.279

Next entry: `CC(C)(C)c1ccc(NC(=O)N2CCCN(c3ccc([N+](=O)[O-])cn3)CC2)cc1` 0.154

###

# test description: endothelial E-selectin upregulation by compounds – imaging, HUVEC, cherry-picked samples, dose response (AID 977605);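 also: signal is the share of imaged cells scored positive for E-selectin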
# condition: HUVEC E-selectin immunostaining, at 19.5 µM (top of the series), percent of TNF-alpha response over vehicle
recorded metric: activation (%)
All answers are understood in %, so give the number only.

Need activation, item `CC(C)NC(=O)Nc1ccc2c(c1)CC(=O)N([C@@H](C)CO)C[C@H](C)[C@@H](CN(C)Cc1ccc(C(=O)O)cc1)O2` 0.001

// same read-out, input: `C[C@H](CO)N1C[C@H](C)[C@H](CN(C)S(=O)(=O)c2ccccc2)Oc2ccc(NC(=O)Nc3ccc(F)cc3)cc2CC1=O` 0.322

Quick one: `CC(C)NC(=O)N(C)C[C@@H]1Oc2ccc(NS(=O)(=O)c3cccs3)cc2CC(=O)N([C@@H](C)CO)C[C@H]1C` 0.096

What about COc1cccc(-c2cccc(-c3nc(C(=O)Nc4ccc(-c5ccccc5)cc4)cc4c3[C@@H](CCO)N(S(=O)C(C)(C)C)C4)c2)c1 (stereo not given in full) ? 1.45

And what about the molecule `C[C@H]1CN([C@@H](C)CO)C(=O)c2cc(NC(=O)CCN3CCOCC3)ccc2O[C@H]1CN(C)S(C)(=O)=O` ? -0.165

Now the molecule `COc1ccc(NC(=O)N(C)C[C@H]2Oc3ccc(N(C)C)cc3CC(=O)N([C@H](C)CO)C[C@@H]2C)cc1` -0.19

Same read-out for `C[C@@H]1CN([C@@H](C)CO)C(=O)Cc2cc(NC(=O)Cn3cnnn3)ccc2O[C@H]1CN(C)Cc1ccc(Oc2ccccc2)cc1` ? 0.416

Also need `COc1ccccc1NS(=O)(=O)c1c(C)[nH]c(C)c1C(=O)N1CCCC1` , thanks. 13.9

# iterate: `COc1ccc(S(=O)(=O)NCC(=O)NCc2cc(=O)n(C)c(=O)n2C)cc1F` 0.047

Entry `CCOC(=O)C1(Cc2cccc(OC)c2)CCN(Cc2ccccc2)CC1` please 0.067

Now try `COc1ccc(CN2CCN(C(=O)c3ccccc3C(=O)c3ccccc3)CC2)cc1OC` . 0.003

Also `C[C@H](CO)N1C[C@H](C)[C@H](CN(C)Cc2ccc(Cl)c(Cl)c2)Oc2ccc(NC(=O)Nc3ccc4c(c3)OCO4)cc2CC1=O` , if possible. -0.197

Again, but for `C[C@@H]1CN([C@H](C)CO)C(=O)c2cccc(NC(=O)Nc3ccc4c(c3)OCO4)c2O[C@@H]1CN(C)C(=O)Nc1ccc(C(F)(F)F)cc1` 0.256

Let us now turn to `Cc1noc(C)c1S(=O)(=O)Nc1ccc2c(c1)C(=O)N([C@@H](C)CO)C[C@H](C)[C@H](CN(C)Cc1ccc3c(c1)OCO3)O2` -0.065

How about `C[C@@H]1CN([C@@H](C)CO)C(=O)Cc2cc(NS(C)(=O)=O)ccc2O[C@H]1CN(C)Cc1ccncc1` ? -0.007

`O=C(COC(=O)CCC(=O)c1ccc(F)cc1)Nc1cccc(S(=O)(=O)N2CCCC2)c1` ? 2.61

Try the molecule `COc1cccc(CCC(=O)N2CCC(n3nccc3NC(=O)CC(C)C)CC2)c1` -0.002

Can you check `Cc1ccc(N2C(=O)[C@@H]3C(c4cccnc4)=NO[C@@H]3C2=O)c(C)c1` next? 0.363

Also `COc1ccc(CNS(=O)(=O)c2ccc3c(c2)C(C)(C)C(=O)N3C)cc1` , if possible. 0.021

What about `COc1ccccc1CSc1nc2c(c(=O)n(C)c(=O)n2C)n1C` ? -0.003

Please answer likewise for `CC(C)NC(=O)N(C)C[C@H]1Oc2ccc(NC(=O)CCC(F)(F)F)cc2CC(=O)N([C@H](C)CO)C[C@@H]1C` -0.115

What about `CC(C)c1ccc(C(=O)Nc2nnc(S(=O)(=O)N3CCCCC3)s2)cc1` ? -0.055

Can you handle CC(=O)c1ccc(N(C(=O)CNC(=O)c2ccco2)C(C(=O)NC2CCCC2)c2ccc(C)o2)cc1 (stereo not given) next? -0.024

Continue with `Cc1cc(C(=O)Nc2ccc(C)c(C)c2)n(-c2ccccc2)n1` 0.076

Similarly, CCn1c(SCC(=O)Nc2cccc(C)c2)nc2c(c1=O)SC(C)C2 (stereo not given) ? -0.269
